# nonsense suppression listing for each entry below
B1: tRNA (parent)
chain: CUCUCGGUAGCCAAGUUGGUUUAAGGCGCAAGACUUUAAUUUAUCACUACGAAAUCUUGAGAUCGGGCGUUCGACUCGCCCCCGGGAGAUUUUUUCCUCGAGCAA

- Variants of: B1
- method: nonsense suppression (GFP-seq) (ratio to wild type); higher = more function; SUP4oc tRNA, yeast GFP reporter sort-seq
Variants at the floor of the assay were thinned out.
Reply with just the number.

Check out these entries, answers already filled in.
1. U57A U63C | 0.0744
2. G26C U55C | 0.0525

Need nonsense suppression of C3U U76A , thanks.
0.0398

Need nonsense suppression of G7A A30U , thanks.
0.0309

Need nonsense suppression of U16A U20C , thanks.
0.193

Need nonsense suppression of A30U U63A , thanks.
0.157

Need nonsense suppression of U22G A30G , thanks.
0.781

Need nonsense suppression of U63A G85A , thanks.
1.09

Need nonsense suppression of U16C C83U , thanks.
0.5
